This collection of values is drawn from patent US8030354B2.

target: GPR40 (Homo sapiens); experiment: Inositol phosphate accumulation assay (A9_GPR40 cells); format: cell-based; design: expressed in transfected cells; host or cells: CHO cells stably transfected with GPR40 and aequorin; details: inositol phosphate assay, A9_GPR40 cells, 1 hour; read-out: IP3 EC50
Here, each record is paired with measured EC50 data.

Answered examples (5):
COc1ccc(F)c(-c2ccc(COc3cccc(C(CC(=O)O)C4CC4)c3F)cc2C2CCCCC2(C)C)c1 (single isomer, unassigned)
< 10 nM
COc1ccc(F)c(-c2ccc(COc3cccc(C(C)CC(=O)O)c3)cc2C2CCC(C)(C)CC2)c1 (single isomer, unassigned)
10 to 100 nM
COc1ccc(F)c(-c2ccc(COc3cccc([C@@H](CC(=O)O)C4CC4)c3)cc2[C@@H]2CCCCC2(C)C)c1 (single isomer, unassigned)
< 10 nM
COc1ccc(F)c(-c2ccc(COc3cccc(C(CC(=O)O)CC4CC4)c3)cc2C2=CCCC2(C)C)c1 (single isomer, unassigned)
10 to 100 nM
COc1cccc(-c2ccc(COc3cccc(C(CC(=O)O)C4CC4)c3)cc2C2CCCCCC2)c1 (single isomer, unassigned)
10 to 100 nM

For the next question, use this molecule.
# EC50 lookup, item C=CC(C)(C)[C@H](OC)c1cc(COc2cccc([C@H](CCC)CC(=O)O)c2)ccc1-c1cc(OC)ccc1F (single isomer, unassigned)
10 to 100 nM

---

target: GPR40 (Homo sapiens, UniProt O14842); assay: Cell-based aequorin assay (CHO cells stably expressing GPR40 and aequorin); parameters: expressed in transfected cells; host or cells: CHO cells stably transfected with GPR40 and aequorin; conditions: activation of human GPR40, CHO cells, 0.01% HSA
Sequence (O14842 whole entry): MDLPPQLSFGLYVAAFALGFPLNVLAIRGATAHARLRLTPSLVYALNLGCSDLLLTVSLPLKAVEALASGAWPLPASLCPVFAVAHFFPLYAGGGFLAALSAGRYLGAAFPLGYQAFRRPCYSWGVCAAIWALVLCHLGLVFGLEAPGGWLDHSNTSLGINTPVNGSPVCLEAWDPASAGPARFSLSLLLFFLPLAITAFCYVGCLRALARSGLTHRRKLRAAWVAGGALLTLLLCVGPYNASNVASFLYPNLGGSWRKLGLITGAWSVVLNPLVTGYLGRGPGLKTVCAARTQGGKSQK
pEC50: −log10 of the molar value.
Readout name: pEC50

Answered examples (3):
COc1ccc(F)c(-c2ccc(COc3cccc(C4(CC(=O)O)CCCCC4)c3)cc2C2CCCC2(C)C)c1 (single isomer, unassigned)
6.00 to 7.00
CCC(CC(=O)O)c1cccc(OCc2ccc(-c3cc(OC)ncc3F)c(C(O)(C(C)(C)C)C(C)(C)C)c2)c1F (single isomer, unassigned)
6.00 to 7.00
CCCC(CC(=O)O)c1cccc(OCc2ccc(-c3cc(OC)ccc3F)c(OCC3CCCCC3)c2)c1 (single isomer, unassigned)
6.00 to 7.00

# pEC50 lookup, item CCCCOc1cc(COc2cccc([C@H](CCC)CC(=O)O)c2)ccc1-c1cc(OC)ccc1F (single isomer, unassigned)
6.00 to 7.00

# pEC50 lookup, item COc1cc(-c2ccc(COc3cccc([C@@H](CC(=O)O)C4CC4)c3)cc2[C@@H]2CCCC2(C)C)c(F)cn1 (single isomer, unassigned)
6.00 to 7.00

# pEC50 lookup, item C=C(C)[C@H](CC(=O)O)c1cccc(OCc2ccc(-c3cc(OC)ccc3F)c(OCCCC)c2)c1 (single isomer, unassigned)
5.00 to 6.00

---

Molecular target: UniProtKB O14842
Assay: Cell-based aequorin assay (CHO cells stably expressing GPR40 and aequorin)
Design: expressed in transfected cells; host or cells: CHO cells stably transfected with GPR40 and aequorin
Details: activation of human GPR40, CHO cells, 0.01% HSA
Protocol: Briefly, the Aequorin assays were performed on doubly stable CHO cells expressing GPR40 and Aequorin DNA. […] The luminescence was recorded over a period of 20 seconds with a Microlumat luminometer (Berthold). […] The inositol phosphate assay was performed on an A9 cell line stably transfected with GPR40 (A9_GPR40). The cells were incubated with different concentrations of compounds and [^3H] inositol accumulation was measured after 1 hour. […]
Here, each record is paired with measured EC50 data.

Answered examples (3):
COc1ccc(F)c(-c2ccc(COc3cccc([C@H](CC(=O)O)C4CC4)c3F)cc2[C@H]2CCCC2(C)C)c1 (single isomer, unassigned) [Example 99.3]
1000 to 10000 nM
CCC(CC(=O)O)c1cccc(OCc2ccc(-c3cc(OC)ccc3F)c(C3CCCCC3(C)C)c2)c1F (single isomer, unassigned) [Example 77.8]
100 to 1000 nM
COc1ccc(F)c(-c2ccc(COc3cccc([C@@H](CC(=O)O)C4CC4)c3)cc2CN2[C@H](C)CC[C@H]2C)c1 (single isomer, unassigned) [Example 66.71]
100 to 1000 nM

# EC50 lookup, item CCC(CC(=O)O)c1cccc(OCc2ccc(-c3cc(OC)ccc3F)c(C3CCCC3(C)C)c2)c1F (single isomer, unassigned) [Example 100.2]
100 to 1000 nM

# EC50 lookup, item CCC(CC(=O)O)c1cc(F)cc(OCc2ccc(-c3cc(OC)ccc3F)c(C3=CCCC3(C)C)c2)c1F (single isomer, unassigned) [Example 101.1]
1000 to 10000 nM

# EC50 lookup, item COc1ccc(F)c(-c2ccc(COc3cccc(C(CC(=O)O)C4CC4)c3)cc2C2CCCC2(C)C)c1 (single isomer, unassigned) [Example 97.2]
1000 to 10000 nM

# EC50 lookup, item CCCC(CC(=O)O)c1cccc(OCc2ccc(-c3cccc(OC)n3)cc2)c1 (single isomer, unassigned) [Example 67.22]
1000 to 10000 nM

# EC50 lookup, item COc1cc(-c2ccc(COc3cccc(C(C)(C)CC(=O)O)c3)cc2C2CCCC2(C)C)c(F)cn1 (single isomer, unassigned) [Example 85.4]
100 to 1000 nM

# EC50 lookup, item CCCCOc1cc(COc2cccc(C(CCC(F)(F)F)CC(=O)O)c2)ccc1-c1cc(OC)ccc1F (single isomer, unassigned) [Example 68.2]
1000 to 10000 nM

# EC50 lookup, item COc1ccc(F)c(-c2ccc(COc3cccc(C(CC(=O)O)C4CC4)c3F)cc2CC(C)(C)C)c1 (single isomer, unassigned) [Example 83.15]
100 to 1000 nM
